Reported IC50 by item:
target: recombinant human cGAS (Homo sapiens (Human), UniProt Q8N884); assay: In vitro inhibition assay of cGAS activity (cGAMP production, RapidFire mass spectrometry); assay type: biochemical; details: 10 nM recombinant human cGAS, 60 nM 75-bp dsDNA, ATP, GTP, room temperature 3 hours, read-out: IC50 (μM), In vitro inhibition assay for Compounds 95-348
Sequence (Q8N884 whole entry): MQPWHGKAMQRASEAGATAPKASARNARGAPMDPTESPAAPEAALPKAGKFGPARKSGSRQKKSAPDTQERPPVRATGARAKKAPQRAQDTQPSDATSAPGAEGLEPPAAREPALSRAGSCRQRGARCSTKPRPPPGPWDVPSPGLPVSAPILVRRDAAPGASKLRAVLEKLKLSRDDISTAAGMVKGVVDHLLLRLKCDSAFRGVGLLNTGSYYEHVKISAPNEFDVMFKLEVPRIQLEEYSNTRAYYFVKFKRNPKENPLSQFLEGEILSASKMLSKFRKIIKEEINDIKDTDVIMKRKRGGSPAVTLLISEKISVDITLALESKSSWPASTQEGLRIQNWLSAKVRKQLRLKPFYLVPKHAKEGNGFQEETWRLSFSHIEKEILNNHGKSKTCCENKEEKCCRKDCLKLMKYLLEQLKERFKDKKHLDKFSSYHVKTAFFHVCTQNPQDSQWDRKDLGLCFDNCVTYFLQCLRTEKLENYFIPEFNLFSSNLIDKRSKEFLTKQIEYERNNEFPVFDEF
The reply should contain only the number, in µM.

As a guide, the following entries are already answered.
CC(=O)NCCS(=O)(=O)NC1CCc2c(-c3cn[nH]c3)c3ccc(Cl)c(Cl)c3n2C1 (stereo not shown)
0.0186
N#CCOc1cc(Cl)c(Cl)c2c1c(-c1cn[nH]c1)c1n2CCN(C(=O)c2nccnc2C(=O)N2CCCCC2)C1
0.0561
O=C(Nc1cc(Cl)c(Cl)c2[nH]c(CO)c(-c3cn[nH]c3)c12)C(F)F
0.0131

Ask | Answer with the recorded IC50 for the compound listed here: N#CCOc1cc(Cl)c(Cl)c2c1c(-c1cn[nH]c1)c1n2CCN(C(=O)CN2CCOCC2=O)C1
Reply | 0.0321
